Observation Type: melting point

Take a look at these entries with their results.
# Compound, Val
rows = [
    ("O=C(NC(CO)C(=O)N1CCN(CCCc2ccccc2)CC1)OCc1ccccc1 (centres undefined)", "95 to 97 °C"),
    ("CC(=O)Nc1c(C#N)cnn1-c1ccc(C)cc1Cl", "146 to 147 °C"),
    ("O=C1c2cccc(NC(=S)Nc3ccccn3)c2C2CC3(CCN12)SCCS3 (centres undefined)", "142 °C"),
    ("Cc1[nH]c(C(=O)N2CCC(C(=O)NCC3CCCCC3)CC2)c(C)c1-c1nc2ccc(C(=O)c3ccccc3)cc2[nH]1", "274 to 276 °C"),
]

Recorded melting point for CN(c1cccc2cc(C3=NCC(CO)S3)[nH]c12)S(=O)(=O)c1cccs1 (centres undefined) , please?
207 to 208 °C

Recorded melting point for CC(C)n1nc(-c2c(OCC(=O)NC3CC3)nc(N)nc2-c2ccccc2)ccc1=O , please?
87 to 92 °C

Recorded melting point for OC1CSC(Oc2cccc(-c3ccc(Cl)nc3)c2)C(O)C1O (centres undefined) , please?
189 °C

Recorded melting point for COC(=O)c1ccc(Cl)cc1-n1c(CCl)nc2ccccc2c1=O , please?
155 to 157 °C

Recorded melting point for CC(C)Cc1cccc(CCCn2c(=O)[nH]c3cc(Cl)cc(Cl)c3c2=O)c1 , please?
167 to 172 °C

Recorded melting point for C#CCn1ccc(C(=O)OC)c1C=O , please?
76 °C

Recorded melting point for CC(C)CC(S)C(=O)NC(C)(C)C(=O)NC(Cc1ccc(-c2cccs2)nc1)C(=O)O (centres undefined) , please?
194 to 196 °C

Recorded melting point for Cc1ccsc1C(=O)Cc1ccc(Cl)cc1[N+](=O)[O-] , please?
105 to 107 °C

Recorded melting point for CS(=O)(=O)c1ccc(-c2cnn(CC(F)(F)F)c(=O)c2SCc2ccccc2)cc1 , please?
108 to 111 °C

Recorded melting point for CCCn1nnn(-c2cc(Cl)c(Cl)cc2Cl)c1=O , please?
89 to 90 °C

Recorded melting point for O=C1NCCc2ccc(OCCCCN3CCN(c4cccc5c4CCCC5)CC3)nc2N1 , please?
185 to 186 °C

Recorded melting point for CN(C(CCn1c(=O)cc(C(F)(F)F)[nH]c1=O)C(=O)NO)S(=O)(=O)c1ccc(Oc2cccc(F)c2)cc1 (centres undefined) , please?
168 to 169 °C

Recorded melting point for O=C(Nc1cccc2c(Cn3cnc4ccccc43)ccnc12)c1c(Cl)cccc1Cl , please?
248 to 253 °C

Recorded melting point for CN(c1cccc2cc(-c3nccs3)[nH]c12)S(=O)(=O)c1ccsc1C(N)=O , please?
269 °C

Recorded melting point for c1ccc(NN2CCc3ccccc3C2)nc1 , please?
116 to 117 °C

* * *

Listed here are molecules together with their documented melting point.

Take a look at these entries with their results.
# Molecule, melting point
data = [
    ("O=C(c1ccccc1)c1ccccc1SSc1ccccc1C(=NO)c1ccccc1", "191 to 193 °C"),
    ("CCOC(=O)c1ccc(NC(=O)C(COS(C)(=O)=O)NS(=O)(=O)c2ccc(Cl)cc2)cc1 (racemic)", "153 to 158 °C"),
    ("COC(=O)CCCCOc1ccc(CNC(=O)C2Cc3ccccc3N2S(=O)(=O)c2ccc(-c3cccc(C(F)(F)F)c3)cc2)cc1 (centres undefined)", "50 °C"),
    ("CS(=O)(=O)c1ccc(C(Cc2ccc(F)cc2)C(=O)Nc2cncc(Cl)n2)cc1 (centres undefined)", "192 to 193 °C"),
    ("Cc1ccc(-c2ccc(CN3CCN(c4ccccc4)CC3)o2)cc1C", "110 °C"),
    ("CC(=O)NC[C@H]1CN(c2ccc(N3CCC4(CCO4)CC3)c(F)c2)C(=O)O1", "164 to 166 °C"),
    ("O=C(NC1c2ccccc2-c2[nH]c(=O)c3nccn3c21)c1ccccc1 (centres undefined)", "300 °C"),
    ("COc1cccc(C(=O)O)c1OCCN1CCC(c2cn(Cc3ccoc3)c3cnccc23)CC1", "303 to 304 °C"),
    ("C[C@H](Nc1ncnc2[nH]cnc12)c1oc2ccc(Br)cc2c(=O)c1-c1ccccc1", "151 to 154 °C"),
    ("COc1ncc(Cl)cc1C(O)C=Cc1ccc(Cl)cc1 (centres undefined)", "135 to 140 °C"),
]

Recorded melting point for CCCN(c1ccc(C(=O)OCC)cc1)c1nc(=O)c2cccnc2s1 , please?
155 to 157 °C

Recorded melting point for COc1cc(N(C)C)ccc1-c1nc2c(N[C@H]3[C@@H](C(N)=O)[C@@H]4C=C[C@H]3C4)c(Br)cnc2[nH]1 , please?
218 to 220 °C

Recorded melting point for C=CCNC(=O)C(C)=Cc1cc([N+](=O)[O-])ccc1Cl , please?
111 to 112 °C

Recorded melting point for CCCCCC(CC(=O)Nc1cc(C(N)=O)ccc1C(C)(C)C)c1ccc(OCCCNS(C)(=O)=O)cc1OC (centres undefined) , please?
77 to 79 °C

Recorded melting point for COc1ncc(C(=O)O)cc1OC1CCCC1 , please?
191 to 192 °C

Recorded melting point for CN(C(=O)C(F)(F)F)C(C(=O)O)c1ccc(Cl)cc1 (centres undefined) , please?
117 to 118 °C

Recorded melting point for CCOC(=O)C=Cc1ccc(C#CC2(O)CN3CCC2CC3)c(OCC)c1 (centres undefined) , please?
152 to 153 °C

Recorded melting point for Cc1cc2c(N)c([N+](=O)[O-])cnc2s1 , please?
238 to 240 °C

Recorded melting point for O=C(Nc1cc(Cl)ccc1OCc1nnn[nH]1)c1cc(-c2ccc(Cl)cc2)oc1C(F)(F)F , please?
227 to 236 °C
